Literature survey of pIC50 (system: M-phase inducer phosphatase 2 (Homo sapiens, UniProt P30305)).
pIC50: −log10 of the molar value.
measuredEndpoint: pIC50

Reference set (5 entries):
Q: Specify measured pIC50 for CC(C)CCC[C@@H](C)[C@H]1CCC2[C@](C)(CCO)CCC[C@@]21C (some centres undefined) .
Result: 5.77

Q: Specify measured pIC50 for `CO[C@H]1O[C@H](Cn2cc(COC[C@H](NC(=O)OC(C)(C)C)C(=O)O)nn2)[C@H](OCc2ccccc2)[C@H](OCc2ccccc2)[C@H]1OCc1ccccc1` .
Result: 4.69

Q: Specify measured pIC50 for CCCCCCCCCCCCCCCC(NCc1ccc(N(C)C)cc1)=C1C(=O)OC(CO)C1=O (mixture of isomers) .
Result: 5.21

Q: Specify measured pIC50 for `O=C(O)[C@@H]1Cc2cc(I)c(OCc3cccc(C(F)(F)F)c3)c(I)c2CN1C(=O)/C=C/c1cccc(Cl)c1` .
Result: 4.40

Q: Specify measured pIC50 for `CCCCCCCCCCCCCCCC1=C(CCC(=O)O)C(=O)OC1=O` .
Result: 5.12

(P) O=C(O)[C@@H]1Cc2cc(I)c(OCCCCl)c(I)c2CN1C(=O)/C=C/c1ccc(Cl)cc1Cl
(Q) COC(=O)C(=O)O[C@H]1CC/C(C)=C\CC[C@]2(C)[C@@H]([C@H](C)CCCC(C)C)CC[C@H]2c2ccc(cc2C(=O)O)C1
(R) COCc1cc2ccc1[C@@H]1CC[C@H]([C@H](C)CCCC(C)C)[C@@]1(C)CC/C=C(/C)CC[C@](C)(OC(C)=O)C2
(S) CCCCCCCCCCCCCCCC(NCc1ccccc1N(C)C)=C1C(=O)OC(CO)C1=O (mixture of isomers)
(T) CCOC(=O)[C@]1(C)CCC[C@@]2(C)[C@@H]3CC[C@@]4(C)C[C@]3(CC[C@@H]21)C[C@H]4OC(=O)c1ccc(O)cc1
Q: Put the items in order so that reported pIC50 rises from first to last. Record the ranking as a list of labels in the requested order.
Result: P, R, Q, S, T

(a) CCCCCCCCCCCC1=C(CCC(=O)O)C(=O)OC1=O
(b) C/C1=C/CC[C@]2(C)[C@@H]([C@H](C)CCCC(C)C)CC[C@H]2c2ccc(cc2C(=O)O)CC(O)CC1 (some centres undefined)
Q: Between a and b , whose measured pIC50 reads higher? Please indicate the selected item by its label.
Result: b

(I) O=C(O)[C@@H]1Cc2cc(I)c(OCc3c(Cl)cccc3Cl)c(I)c2CN1C(=O)/C=C/c1cccc(F)c1
(II) CO[C@H]1O[C@H](Cn2cc(COC[C@H](NC(=O)OC(C)(C)C)C(=O)O)nn2)[C@@H](OCc2ccccc2)[C@H](OCc2ccccc2)[C@@H]1OCc1ccccc1
Q: Between I and II , whose measured pIC50 reads higher? Please indicate the selected item by its label.
Result: II

###

Literature survey of pIC50 (system: the protein given by its sequence).
Target protein (sequence): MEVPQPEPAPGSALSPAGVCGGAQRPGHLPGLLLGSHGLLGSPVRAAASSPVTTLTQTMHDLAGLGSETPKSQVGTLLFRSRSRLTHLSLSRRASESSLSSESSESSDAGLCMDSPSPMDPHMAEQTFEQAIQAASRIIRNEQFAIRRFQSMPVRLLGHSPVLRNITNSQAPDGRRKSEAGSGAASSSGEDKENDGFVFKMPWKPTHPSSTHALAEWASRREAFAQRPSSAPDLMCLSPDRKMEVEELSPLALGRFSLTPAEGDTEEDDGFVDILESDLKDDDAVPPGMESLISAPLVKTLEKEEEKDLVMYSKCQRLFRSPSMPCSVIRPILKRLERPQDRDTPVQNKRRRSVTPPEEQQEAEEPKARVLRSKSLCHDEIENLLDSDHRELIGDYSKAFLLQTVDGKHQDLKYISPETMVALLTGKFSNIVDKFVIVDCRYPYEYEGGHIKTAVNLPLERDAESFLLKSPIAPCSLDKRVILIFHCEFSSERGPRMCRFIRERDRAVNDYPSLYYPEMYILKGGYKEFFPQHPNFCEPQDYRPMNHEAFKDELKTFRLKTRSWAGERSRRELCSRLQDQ
pIC50: −log10 of the molar value.
measuredEndpoint: pIC50

Q: Specify measured pIC50 for CCCCCCCCCCCCCCCC(NCc1ccc(C)cc1)=C1C(=O)OC(CO)C1=O (mixture of isomers) .
Result: 5.48

(A) CC(C)CCC[C@@H](C)[C@H]1CCC2[C@@H](OP(=O)(O)O)CCC[C@@]21C (stereo partly drawn)
(B) CCCCCCCCCCCCCCC1=C(CCC(=O)O)C(=O)OC1=O
Q: Which value of pIC50 is smaller, the one for A or the one for B ? Please indicate the selected item by its label.
Result: B

(1) CC(C)CCC[C@@H](C)[C@H]1CC[C@H]2c3ccc(cc3C(=O)O)CC(=O)CCC(C)CCC[C@]12C (stereo partly drawn)
(2) O=C(O)[C@@H]1Cc2cc(I)c(OCc3ccc(C(F)(F)F)cc3)c(I)c2CN1C(=O)/C=C/c1ccccc1C(F)(F)F
Q: Between 1 and 2 , whose measured pIC50 reads higher? Please indicate the selected item by its label.
Result: 1
